# Measured On: SWI/SNF-related matrix-associated actin-dependent regulator of chromatin subfamily A member 2 (Homo sapiens, UniProt P51531)
# Sequence (P51531 whole entry): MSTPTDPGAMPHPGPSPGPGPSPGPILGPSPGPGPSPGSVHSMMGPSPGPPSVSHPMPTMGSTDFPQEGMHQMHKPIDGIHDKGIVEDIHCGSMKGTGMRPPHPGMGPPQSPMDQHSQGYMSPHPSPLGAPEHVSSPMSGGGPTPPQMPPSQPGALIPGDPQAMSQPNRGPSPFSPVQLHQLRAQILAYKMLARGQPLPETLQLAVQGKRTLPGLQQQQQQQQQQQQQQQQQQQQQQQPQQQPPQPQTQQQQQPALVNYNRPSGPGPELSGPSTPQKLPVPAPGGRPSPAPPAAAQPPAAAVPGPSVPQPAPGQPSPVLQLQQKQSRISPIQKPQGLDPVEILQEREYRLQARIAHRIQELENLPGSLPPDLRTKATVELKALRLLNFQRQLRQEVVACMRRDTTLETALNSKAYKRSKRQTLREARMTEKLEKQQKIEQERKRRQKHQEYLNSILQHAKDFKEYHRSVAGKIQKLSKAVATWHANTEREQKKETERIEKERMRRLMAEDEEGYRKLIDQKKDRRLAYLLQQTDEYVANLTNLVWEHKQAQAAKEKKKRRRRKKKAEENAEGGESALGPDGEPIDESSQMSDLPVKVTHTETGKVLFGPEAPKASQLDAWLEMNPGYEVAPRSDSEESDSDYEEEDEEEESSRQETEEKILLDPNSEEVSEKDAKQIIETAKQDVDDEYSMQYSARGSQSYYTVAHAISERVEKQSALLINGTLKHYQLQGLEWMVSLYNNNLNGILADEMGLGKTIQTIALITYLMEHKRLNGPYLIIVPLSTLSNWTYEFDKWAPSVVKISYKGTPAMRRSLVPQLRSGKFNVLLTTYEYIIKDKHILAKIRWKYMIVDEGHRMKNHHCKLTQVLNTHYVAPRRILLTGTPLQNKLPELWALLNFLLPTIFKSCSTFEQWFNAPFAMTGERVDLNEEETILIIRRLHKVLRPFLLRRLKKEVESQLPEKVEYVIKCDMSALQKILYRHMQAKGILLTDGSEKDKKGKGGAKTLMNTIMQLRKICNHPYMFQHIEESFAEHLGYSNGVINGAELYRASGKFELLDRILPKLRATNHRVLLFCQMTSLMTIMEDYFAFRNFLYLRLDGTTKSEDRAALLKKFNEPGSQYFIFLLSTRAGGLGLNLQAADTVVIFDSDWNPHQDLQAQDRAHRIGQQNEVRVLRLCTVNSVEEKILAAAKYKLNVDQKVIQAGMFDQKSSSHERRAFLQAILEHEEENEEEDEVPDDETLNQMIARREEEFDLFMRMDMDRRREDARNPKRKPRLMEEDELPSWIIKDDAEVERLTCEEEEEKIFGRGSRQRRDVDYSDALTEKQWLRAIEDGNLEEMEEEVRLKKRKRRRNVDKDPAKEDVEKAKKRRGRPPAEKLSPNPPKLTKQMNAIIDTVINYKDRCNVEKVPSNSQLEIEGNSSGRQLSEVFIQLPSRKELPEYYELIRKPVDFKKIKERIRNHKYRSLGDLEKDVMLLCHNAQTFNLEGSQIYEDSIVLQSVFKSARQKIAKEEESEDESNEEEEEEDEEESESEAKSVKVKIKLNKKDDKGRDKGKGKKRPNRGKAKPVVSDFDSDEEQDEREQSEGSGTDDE
# Assay Notes: Binding affinity to SMARCA2 in human HuT78 cell extract using GSK2801 affinity matrix by chemoproteomic competition binding assay
Measured Parameter: Kd (µM)

INSERT INTO assay_data (smiles_record, measured_parameter, endpoint_value) VALUES
  ('CCCOc1ccn2c(C(C)=O)cc(-c3cccc(OC)c3)c2c1', 'Kd', 15.8);

Provenance of the data: ChEMBL document CHEMBL5712886
